- tgt: T1, similar peptide SP-05-0007, source protein not stated peptide on HLA-A*02:01 (human)
- T1 peptide: KIFPALCTV
- assay_protocol: killing
readout_label: binding result

>>> test_value("TCR-13 (TCR, V domains shown) Valpha: QKITQTQPGMFVQEKEAVTLDCTYDTSDQSYGLFWYKQPSSGEMIFLIYQGSYDEQNATEGRYSLNFQKARKSANLVISASQLGDSAMYFCAMSDPIMDTGRRALTFGSGTRLQVQP Vbeta: GITQSPKYLFRKEGQNVTLSCEQNLNHDAMYWYRQDPGQGLRLIYYSQIVNDFQKGDIAEGYSVSREKKESFPLTVTSAQKNPTAFYLCASKSRGPNLADTQYFGPGTRLTVL")
"no recognition"
>>> test_value("TCR-6 (TCR, V domains shown) Valpha: QKEVEQDPGPLSVPEGAIVSLNCTYSNSAFQYFMWYRQYSRKGPELLMYTYSSGNKEDGRFTAQVDKSSKYISLFIRDSQPSDSATYLCAMSGNSGARDYGNNRLAFGKGNQVVVIP Vbeta: EVTQTPKHLVMGMTNKKSLKCEQHMGHRAMYWYKQKAKKPPELMFVYSYEKLSINESVPSRFSPECPNSSLLNLHLHALQPEDSALYLCASATWEEAGPYNEQFFGPGTRLTVL")
"no recognition"
>>> test_value("TCR-12 (TCR, V domains shown) Valpha: QLLEQSPQFLSIQEGENLTVYCNSSSVFSSLQWYRQEPGEGPVLLVTVVTGGEVKKLKRLTFQFGDARKDSSLHITAAQPGDTGLYLCAGGLSDSYDKVIFGPGTSLSVIP Vbeta: EVTQTPKHLVMGMTNKKSLKCEQHMGHRAMYWYKQKAKKPPELMFVYSYEKLSINESVPSRFSPECPNSSLLNLHLHALQPEDSALYLCASSQGVGQEYGYTFGSGTRLTVV")
"no recognition"
